pKi: −log10 of the molar value.
Assembled from different publications: pKi for Adenosine receptor A3 (Homo sapiens, UniProt P0DMS8).
Attribute Measured: pKi

Smiles String: CC(C)n1cc2c(C(N)=O)nc(N)nc2n1
Modifier Sign: <
Recorded Value: 4.00

Smiles String: NCCCCCC(=O)Nc1nc2ccc(Cl)cc2c2nc(-c3ccco3)nn12
Modifier Sign: =
Recorded Value: 6.67

Smiles String: CNC(=O)[C@@]12C[C@@H]1[C@@H](n1cnc3c(NCCc4ccccc4)nc(I)nc31)[C@H](O)[C@@H]2O
Modifier Sign: =
Recorded Value: 9.04

Smiles String: Cc1ccccc1CNc1nc(Cl)nc2c1ncn2[C@@H]1O[C@H](C(=O)N2CCC(Cc3ccccc3)CC2)[C@@H](O)[C@H]1O
Modifier Sign: =
Recorded Value: 4.31

Smiles String: Nc1ncnc2c1ncn2[C@@H]1O[C@H](C(=O)NC2CC2)[C@@H](O)[C@H]1O
Modifier Sign: =
Recorded Value: 6.97

Smiles String: CC(C)Nc1ncc(C(=O)O)c2nc(-c3ccco3)nn12
Modifier Sign: =
Recorded Value: 4.76

Smiles String: Cn1cc2c(nc(NC(=O)Nc3ccccn3)n3nc(-c4ccco4)nc23)n1
Modifier Sign: =
Recorded Value: 9.46

Smiles String: O=C(Nc1nc(-c2ccccc2)nc2sc(-c3ccccc3)nc12)c1ccccc1
Modifier Sign: =
Recorded Value: 5.92

Smiles String: COc1ccc(NC(=O)Nc2nn(-c3ccccc3)c(=O)c3ccccc23)cc1
Modifier Sign: =
Recorded Value: 7.22

Smiles String: CCOC(=O)c1nc(N)nc2nn(CCc3ccccc3)cc12
Modifier Sign: =
Recorded Value: 4.74

Smiles String: CCOC(=O)c1nc(NC(=O)c2ccc(C(F)(F)F)cc2)nc2nn(C)cc12
Modifier Sign: <
Recorded Value: 4.00

Smiles String: Nc1nc(-c2cnn(Cc3ccccc3)c2)nc2c1ncn2[C@@H]1O[C@H](CO)[C@@H](O)[C@H]1O
Modifier Sign: <
Recorded Value: 5.00

Smiles String: COc1ccc(-n2nc3c(NC(=O)c4ccncc4)nc4ccccc4n3c2=O)cc1
Modifier Sign: =
Recorded Value: 7.17

Smiles String: Cn1c(=O)n(CCCc2ccccc2)c(=O)c2[nH]cnc21
Modifier Sign: =
Recorded Value: 5.06

Smiles String: O=C(Nc1nc2ccccc2c2cn(-c3ccccc3)nc12)c1cccs1
Modifier Sign: =
Recorded Value: 7.30

Smiles String: CCCCCC(=O)Nc1nc(Oc2ccccc2)nc2nc(-c3ccco3)nn12
Modifier Sign: =
Recorded Value: 5.66

Smiles String: Nc1cccc2c1nc(N(C(=O)c1ccccc1)C(=O)c1ccccc1)c1nn(-c3ccccc3)c(=O)n12
Modifier Sign: =
Recorded Value: 5.91

Smiles String: CCCn1c(=O)c2[nH]c(-c3cc(OCC(=O)Nc4ccncc4)nn3C)nc2n(CCC)c1=O
Modifier Sign: <
Recorded Value: 6.00

Smiles String: COc1ccc(C(=O)Nc2nc(-c3ccccc3)ns2)cc1C
Modifier Sign: =
Recorded Value: 6.24

Smiles String: CCOC(=O)c1nc(NC(=O)c2ccc(F)cc2)nc2nn(CCc3ccccc3)cc12
Modifier Sign: =
Recorded Value: 5.17

----------
Assembled from different publications: Ki for Adenosine receptor A3 (Homo sapiens, UniProt P0DMS8).

Compound: Nc1nc2cn(CCc3ccccc3)cc2c2nc(-c3ccco3)nn12
Modifier Sign: =
Ki (µM): 0.124
--
Compound: CNC(=O)[C@H]1O[C@@H](n2cnc3c(NC)ncnc32)[C@H](O)[C@@H]1NS(C)(=O)=O
Modifier Sign: >
Ki (µM): 3
--
Compound: CONC(=O)[C@H]1O[C@@H](n2cnc3c(N)ncnc32)[C@H](O)[C@@H]1O
Modifier Sign: =
Ki (µM): 0.0853
--
Compound: NCC1CCN(CCC(=O)Nc2ccc(-c3cn4c(=O)n(-c5ccccc5)nc4c(N)n3)cc2)CC1
Modifier Sign: =
Ki (µM): 1.74
--
Compound: Cn1cc2c(nc(NCC3CCCCC3)n3nc(-c4ccco4)nc23)n1
Modifier Sign: =
Ki (µM): 0.0473
--
Compound: Cc1ccc(-c2cn3c(=O)n(-c4ccccc4)nc3c(=O)[nH]2)cc1
Modifier Sign: >
Ki (µM): 30
--
Compound: COc1ccn2c(c1)nc1c2c(=O)n(CC2CC2)c(=O)n1Cc1cccc(C)c1
Modifier Sign: =
Ki (µM): 0.0015
--
Compound: O=C(Nc1nc(-c2ccccn2)cs1)c1ccc(Cl)c(Cl)c1
Modifier Sign: =
Ki (µM): 2.5
--
Compound: CC(C)=CCn1cc2c(nc(N)n3nc(-c4ccco4)nc23)n1
Modifier Sign: =
Ki (µM): 0.811
--
Compound: CC(=O)Oc1ccc2cc(-c3cc(Br)cs3)c(=O)oc2c1OC(C)=O
Modifier Sign: >
Ki (µM): 100
--
Compound: CN(C)C(=O)[C@H]1O[C@@H](n2cnc3c(NCc4cccc(I)c4)nc(Cl)nc32)[C@H](O)[C@@H]1O
Modifier Sign: =
Ki (µM): 0.029
--
Compound: CCOC(=O)c1sc(SC)c2c1CCCC2O (stereo not drawn)
Modifier Sign: =
Ki (µM): 35.8
--
Compound: COc1ccc(NC(=O)Nc2nc3cn(C)cc3c3nc(-c4ccco4)nn23)cc1
Modifier Sign: =
Ki (µM): 0.015
--
Compound: COc1ccc(-c2nc3c4cn(CCc5ccccc5)nc4nc(N)n3n2)cc1
Modifier Sign: =
Ki (µM): 0.025
--
Compound: CCCn1c(=O)c2nc(-c3ccc(/C=C/C(=O)O)cc3)[nH]c2n(CCC)c1=O
Modifier Sign: =
Ki (µM): 0.03
--
Compound: Nc1nc2cn(CCCc3ccccc3)cc2c2nc(-c3ccco3)nn12
Modifier Sign: =
Ki (µM): 0.241
--
Compound: Cn1nc(-c2nc3c([nH]2)c(=O)n(C)c(=O)n3C)cc1N
Modifier Sign: >
Ki (µM): 1
--
Compound: Cn1cc2c(nc(N)n3nc(-c4ccccc4)nc23)n1
Modifier Sign: =
Ki (µM): 0.075
--
Compound: O=C(c1nnc(NC2CCCC2)c2cc(Cl)c(Cl)cc12)N1CCC(O)CC1
Modifier Sign: =
Ki (µM): 13
--
Compound: O=c1[nH]c(-c2ccccc2)cn2c(=O)n(-c3ccc(O)cc3)nc12
Modifier Sign: =
Ki (µM): 0.00037
--
Compound: Nc1nc(NCc2ccc(S(N)(=O)=O)cc2)nc2sc(-c3ccco3)nc12
Modifier Sign: =
Ki (µM): 3.46
--
Compound: CCNC(=O)[C@H]1O[C@@H](n2cnc3c(Nc4ccc(OCC(=O)Nc5ccc(Br)cc5)cc4)ncnc32)[C@H](O)[C@@H]1O
Modifier Sign: =
Ki (µM): 0.0364
--
Compound: c1ccc(-c2nc(-c3ccccc3)c3[nH]c(-c4ccccc4)nc3n2)cc1
Modifier Sign: =
Ki (µM): 0.049
--
Compound: COc1ccc(C(=O)Nc2nc(C)nc3sc(-c4ccccc4)nc23)cc1
Modifier Sign: =
Ki (µM): 0.091
--
Compound: O=C(O)c1cnc(NCc2ccc(C(F)(F)F)cc2)n2nc(-c3ccco3)nc12
Modifier Sign: =
Ki (µM): 15.9
--
Compound: O=C(Nc1cc(-c2ccc3c(c2)OCO3)nc(-c2ccccc2)n1)C1CCCC1
Modifier Sign: =
Ki (µM): 0.186
--
Compound: Cn1c(=O)[nH]c2cc(-c3ccccc3)[nH]c2c1=O
Modifier Sign: =
Ki (µM): 2.1
--
Compound: CCNC(=O)[C@H]1OC(n2cnc3c(NC(=O)Nc4ccc(S(=O)(=O)N5CCCC5)cc4)ncnc32)C(O)C1O (single isomer, unassigned)
Modifier Sign: =
Ki (µM): 0.022
--
Compound: CN(C)C(=O)[C@H]1S[C@@H](n2cnc3c(NCc4cccc(Br)c4)nc(Cl)nc32)[C@H](O)[C@@H]1O
Modifier Sign: =
Ki (µM): 0.00932
--
Compound: Cc1nc2sc(-c3ccc(Cl)cc3)nc2c(=O)[nH]1
Modifier Sign: =
Ki (µM): 0.018
--
Compound: CCNC(=O)[C@H]1O[C@@H](n2cnc3c(Nc4ccc(OCC(=O)NCc5ccccc5)cc4)ncnc32)[C@H](O)[C@@H]1O
Modifier Sign: =
Ki (µM): 0.0827
--
Compound: CCNC(=O)[C@H]1O[C@@H](n2cnc3c(N)nc(NCCc4ccc(CCC(=O)N[C@H](CCCN=C(N)N)C(=O)O)cc4)nc32)[C@H](O)[C@@H]1O
Modifier Sign: =
Ki (µM): 0.22
--
Compound: OC[C@H]1O[C@@H](n2cnc3c(NC45CCC(CC4)C5)nc(-n4cccn4)nc32)[C@H](O)[C@@H]1O
Modifier Sign: =
Ki (µM): 1.27
--
Compound: Cn1cc2c(nc(NC(=O)Cc3c(Cl)cccc3Cl)n3nc(-c4ccco4)nc23)n1
Modifier Sign: =
Ki (µM): 0.0444
--
Compound: CCCOC(=O)[C@@]12C[C@@H]1[C@@H](n1cnc3c(NC)nc(C#Cc4ccc(Cl)s4)nc31)[C@H](O)[C@@H]2O
Modifier Sign: =
Ki (µM): 0.00578
--
Compound: Nc1nc(Cc2ccccc2O)nc2cn(-c3ccccc3)nc12
Modifier Sign: =
Ki (µM): 0.097
--
Compound: Cn1c(=O)c2c(nc3n2CCN(CCCc2cccc(Br)c2)C3)n(C)c1=O
Modifier Sign: >
Ki (µM): 10
--
Compound: COc1ccc(-n2cc3nc(Cc4ccccc4)[nH]c(=O)c3n2)cc1
Modifier Sign: =
Ki (µM): 0.25
